Values from paper PMC10327353

test: Phase 1 study: CSF penetration (Kp,uu,CSF); type: in vivo, human; details: human, CSF / free plasma, oral, 100 mg, subject 5; read-out: Kp,uu,CSF

{"COMPOUND_STRING": "COc1cc(O[C@H]2CCN(C)CC2(F)F)c2c(Nc3ccc(Oc4ccn5ncnc5c4)c(C)c3)ncnc2c1", "Kp uu": 2.63}

----------
target: Lck(h) (Homo sapiens, UniProt P06239)
Sequence (P06239 whole entry): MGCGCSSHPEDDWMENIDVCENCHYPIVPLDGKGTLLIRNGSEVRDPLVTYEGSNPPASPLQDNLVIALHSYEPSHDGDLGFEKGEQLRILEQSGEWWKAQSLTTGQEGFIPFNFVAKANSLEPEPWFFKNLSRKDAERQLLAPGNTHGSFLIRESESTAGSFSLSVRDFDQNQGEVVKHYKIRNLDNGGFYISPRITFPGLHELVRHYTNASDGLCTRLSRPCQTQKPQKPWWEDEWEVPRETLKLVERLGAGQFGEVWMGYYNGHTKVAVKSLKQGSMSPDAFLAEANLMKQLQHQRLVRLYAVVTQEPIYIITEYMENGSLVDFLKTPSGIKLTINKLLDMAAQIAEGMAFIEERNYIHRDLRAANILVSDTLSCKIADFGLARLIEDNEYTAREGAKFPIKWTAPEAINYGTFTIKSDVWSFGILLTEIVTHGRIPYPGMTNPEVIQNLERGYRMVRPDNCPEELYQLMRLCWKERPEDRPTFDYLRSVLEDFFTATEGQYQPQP
pIC50: −log10 of the molar value.

{"COMPOUND": "COc1cc(O[C@H]2CCN(C)CC2(F)F)c2c(Nc3ccc(Oc4ccn5ncnc5c4)c(C)c3)ncnc2c1 [DZD1516]", "pIC50": 6.36}

----------
experiment: Phase 1 study: CSF penetration (Kp,uu,CSF); format: in vivo, human; settings: human, CSF (relative to unbound plasma), oral, patients with CNS metastases; read-out: mean Kp,uu,CSF
READOUT: Kp uu

{"COMPOUND": "COc1cc(O[C@H]2CCN(C)CC2(F)F)c2c(Nc3ccc(Oc4ccn5ncnc5c4)c(C)c3)ncnc2c1 [DZD1516]", "RESULT": 2.1}

----------
target: Lyn(h) (Homo sapiens)
Sequence (P07948 whole entry): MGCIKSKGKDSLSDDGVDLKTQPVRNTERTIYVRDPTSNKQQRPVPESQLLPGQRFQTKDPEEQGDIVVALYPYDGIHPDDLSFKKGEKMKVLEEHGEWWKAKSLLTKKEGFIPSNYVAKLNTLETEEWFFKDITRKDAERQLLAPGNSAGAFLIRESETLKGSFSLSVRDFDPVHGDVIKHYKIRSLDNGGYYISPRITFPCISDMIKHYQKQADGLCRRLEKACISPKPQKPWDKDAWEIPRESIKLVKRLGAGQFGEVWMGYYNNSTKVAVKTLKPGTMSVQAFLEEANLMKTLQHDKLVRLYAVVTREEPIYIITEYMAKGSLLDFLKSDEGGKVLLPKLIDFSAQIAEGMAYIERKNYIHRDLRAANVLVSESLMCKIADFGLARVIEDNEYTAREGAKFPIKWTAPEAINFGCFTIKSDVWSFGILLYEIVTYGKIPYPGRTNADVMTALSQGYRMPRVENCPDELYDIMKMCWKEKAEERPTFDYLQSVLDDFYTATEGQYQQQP

{"COMPOUND_STRING": "COc1cc(O[C@H]2CCN(C)CC2(F)F)c2c(Nc3ccc(Oc4ccn5ncnc5c4)c(C)c3)ncnc2c1", "UNITS": "nM", "IC50": 2300}

----------
test: In vivo CNS-PK study in rat; conditions: female, Wistar Han, brain and CSF (relative to unbound plasma/blood), single PO dose of DZD1516 30 mg/kg
READOUT: Kp uu

{"COMPOUND_STRING": "COc1cc(O[C@H]2CCN(C)CC2(F)F)c2c(Nc3ccc(Oc4ccn5ncnc5c4)c(C)c3)ncnc2c1", "RESULT": "0.57 to 0.87"}

----------
experiment: Phase 1 study: CSF penetration (Kp,uu,CSF); type: in vivo, human; conditions: human, CSF / free plasma, oral, 200 mg, subject 6; read-out: Kp,uu,CSF

{"COMPOUND": "COc1cc(O[C@H]2CCN(C)CC2(F)F)c2c(Nc3ccc(Oc4ccn5ncnc5c4)c(C)c3)ncnc2c1 [DZD1516]", "Kp uu": 1.31}

----------
assay: Phase 1 study: CSF penetration (Kp,uu,CSF); format: in vivo, human; details: human, CSF to free plasma, oral, 100 mg, subject 3; read-out: Kp,uu,CSF

{"MOLECULE": "COc1cc(O[C@H]2CCN(C)CC2(F)F)c2c(Nc3ccc(Oc4ccn5ncnc5c4)c(C)c3)ncnc2c1 [DZD1516]", "Kp uu": 2.94}

----------
target: HER2 (Homo sapiens, UniProt P04626); test: In vitro HER2 enzymatic assay (Lance Ultra Kinase Assay); type: biochemical; parameters: purchased Thermo Fisher PR4918A; details: recombinant HER2, 2 mM ATP; read-out: IC50 against HER2 in the enzymatic assay
Sequence (P04626 23-1255): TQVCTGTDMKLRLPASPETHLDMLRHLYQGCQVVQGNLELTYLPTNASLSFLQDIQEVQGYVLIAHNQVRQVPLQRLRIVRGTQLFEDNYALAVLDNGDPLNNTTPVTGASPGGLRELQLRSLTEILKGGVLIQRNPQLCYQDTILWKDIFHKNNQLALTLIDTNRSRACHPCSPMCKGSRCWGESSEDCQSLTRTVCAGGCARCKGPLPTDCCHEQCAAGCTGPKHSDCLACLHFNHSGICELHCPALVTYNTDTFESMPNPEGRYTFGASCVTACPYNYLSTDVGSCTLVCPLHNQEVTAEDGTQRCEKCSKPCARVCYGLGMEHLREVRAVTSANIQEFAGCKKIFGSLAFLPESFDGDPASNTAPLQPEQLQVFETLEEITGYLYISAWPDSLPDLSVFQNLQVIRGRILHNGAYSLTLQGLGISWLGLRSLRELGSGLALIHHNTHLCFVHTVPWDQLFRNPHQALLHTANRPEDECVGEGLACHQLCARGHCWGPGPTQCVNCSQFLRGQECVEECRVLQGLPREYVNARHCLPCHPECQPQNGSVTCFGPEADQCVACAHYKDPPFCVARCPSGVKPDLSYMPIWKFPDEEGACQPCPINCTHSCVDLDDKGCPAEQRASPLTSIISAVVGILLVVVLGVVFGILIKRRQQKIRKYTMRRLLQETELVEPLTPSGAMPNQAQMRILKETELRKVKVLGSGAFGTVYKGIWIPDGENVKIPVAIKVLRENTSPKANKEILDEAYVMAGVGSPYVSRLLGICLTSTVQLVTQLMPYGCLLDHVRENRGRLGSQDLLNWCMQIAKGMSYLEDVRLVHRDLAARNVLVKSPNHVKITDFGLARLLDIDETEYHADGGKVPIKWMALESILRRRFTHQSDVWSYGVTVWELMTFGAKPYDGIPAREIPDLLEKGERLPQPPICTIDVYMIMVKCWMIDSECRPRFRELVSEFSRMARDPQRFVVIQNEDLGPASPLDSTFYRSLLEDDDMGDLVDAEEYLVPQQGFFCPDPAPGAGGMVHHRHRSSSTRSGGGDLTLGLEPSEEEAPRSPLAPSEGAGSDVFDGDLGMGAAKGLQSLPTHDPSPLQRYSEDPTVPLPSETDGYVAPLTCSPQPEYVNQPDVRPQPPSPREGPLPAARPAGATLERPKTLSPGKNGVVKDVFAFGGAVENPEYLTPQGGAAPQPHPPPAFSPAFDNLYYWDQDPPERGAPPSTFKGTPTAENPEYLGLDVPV
pIC50: −log10 of the molar value.

{"COMPOUND_STRING": "COc1cc(O[C@H]2CCN(C)CC2(F)F)c2c(Nc3ccc(Oc4ccn5ncnc5c4)c(C)c3)ncnc2c1", "pIC50": 9.25}

----------
test: Phase 1 study: plasma pharmacokinetics; assay type: in vivo, human; details: human, plasma, oral, 250 mg, Day 1, 250 mg DZD1516; read-out: AUC0-10, Geometric Mean [CV%]

{"COMPOUND": "COc1cc(O[C@H]2CCN(C)CC2(F)F)c2c(Nc3ccc(Oc4ccn5ncnc5c4)c(C)c3)ncnc2c1 [DZD1516]", "AUC(0-t) (ng·h/mL)": 6160}
